Assay: Cmax in Beagle dog at 2 mg/kg, iv administered as single bolus dose by LC-MS/MS analysis
Assay type: ADME, organism-based, Canis lupus familiaris
Design: dose 2 mg/kg, route intravenous
Conditions: in vivo
endpoint.name: Cmax (ng/mL)
Answers are plain numbers, in ng/mL.

                                   molecule  measurement_unit  data_value
0  CC(C)c1cccc([C@H](C)C2CC2)c1O [CIPEPOFOL]             ng/mL        1610

Continue with the next molecule.
Need Cmax, item CCc1c2c(nc3ccc(O)cc13)-c1cc3c(c(=O)n1C2)COC(=O)[C@]3(O)CC [7-ETHYL-10-HYDROXYCAMPTOTHECIN]
983

---

Test: Half life in Beagle dog at 2 mg/kg, iv administered as single bolus dose by LC-MS/MS analysis
Type: ADME, organism-based, Canis lupus familiaris
Conditions: in vivo
endpoint.name: half-life (h)
One number for each entry, in h.

>>> print(df.to_string())
                        molecule  data_value
0  CC(C)c1cccc([C@H](C)C2CC2)c1O         0.2

Continue with the next molecule.
Need half-life, item CCc1c2c(nc3ccc(O)cc13)-c1cc3c(c(=O)n1C2)COC(=O)[C@]3(O)CC [7-ETHYL-10-HYDROXYCAMPTOTHECIN]
2.67

---

Test: Half life in Beagle dog at 0.2 mg/kg, iv administered as single bolus dose by LC-MS/MS analysis
Assay type: ADME, organism-based, Canis lupus familiaris
Details: in vivo
endpoint.name: half-life (min)
Numbers only, in min.

Need half-life, item C[C@]12CC[C@@H]3c4ccc(O)cc4CC[C@H]3[C@@H]1CC[C@@H]2O
16.2

---

Assay: Half life in Beagle dog at 1 mg/kg, iv administered as single bolus dose by LC-MS/MS analysis
Type: ADME, organism-based, Canis lupus familiaris
Conditions: in vivo
endpoint.name: half-life (min)
Answers are plain numbers, in min.

Need half-life, item C=CCN1CC[C@]23c4c5ccc(O)c4O[C@H]2C(=O)CC[C@@]3(O)[C@H]1C5 [NALOXONE]
22.8

---

Assay: AUC (0 to t) in Beagle dog at 1 mg/kg, iv administered as single bolus dose by LC-MS/MS analysis
Format: ADME, organism-based, Canis lupus familiaris
Details: in vivo
endpoint.name: AUC(0-t) (ng·h/mL)
One number for each entry, in ng·h/mL.

Need AUC(0-t), item C=CCN1CC[C@]23c4c5ccc(O)c4O[C@H]2C(=O)CC[C@@]3(O)[C@H]1C5
122

---

Experiment: Cmax in Beagle dog at 1 mg/kg, iv administered as single bolus dose by LC-MS/MS analysis
Type: ADME, organism-based, Canis lupus familiaris
Set-up: dose 1 mg/kg, route intravenous
Settings: in vivo
endpoint.name: Cmax (ng/mL)
Answers are plain numbers, in ng/mL.

Need Cmax, item C=CCN1CC[C@]23c4c5ccc(O)c4O[C@H]2C(=O)CC[C@@]3(O)[C@H]1C5
196

---

Experiment: Cmax in Beagle dog at 0.2 mg/kg, iv administered as single bolus dose by LC-MS/MS analysis
Type: ADME, organism-based, Canis lupus familiaris
Parameters: dose 0.2 mg/kg, route intravenous
Details: in vivo
endpoint.name: Cmax (ng/mL)
Answers are plain numbers, in ng/mL.

Need Cmax, item C[C@]12CC[C@@H]3c4ccc(O)cc4CC[C@H]3[C@@H]1CC[C@@H]2O
76

---

Provide the reported AUC(0-t) of each item.
Assay: AUC (0 to t) in Beagle dog at 2 mg/kg, iv administered as single bolus dose by LC-MS/MS analysis
Type: ADME, organism-based, Canis lupus familiaris
Conditions: in vivo
Numbers only, in ng·h/mL.

>>> print(df.to_string())
                        compound  endpoint_name  measurement_unit  data_value
0  CC(C)c1cccc([C@H](C)C2CC2)c1O       AUC(0-t)           ng·h/mL         417

Continue with the next compound.
Need AUC(0-t), item CCc1c2c(nc3ccc(O)cc13)-c1cc3c(c(=O)n1C2)COC(=O)[C@]3(O)CC [7-ETHYL-10-HYDROXYCAMPTOTHECIN]
410

---

Assay: in vivo
Conditions: Beagle, dog, po, 6.9 mg/kg
Description: Oral bioavailability in Beagle dog at 6.9 mg/kg by LC-MS/MS analysis
endpoint.name: bioavailability (%)
Give bare numbers, in %.

Need bioavailability, item CC(C)c1cccc(C(C)C)c1O
7.3

---

Assay: in vivo
Settings: Beagle, dog, iv, 3 mg/kg
Description: AUC (0 to t) in Beagle dog at 3 mg/kg, iv administered as single bolus dose by LC-MS/MS analysis
endpoint.name: AUC(0-t) (ng·h/mL)
One number for each entry, in ng·h/mL.

Need AUC(0-t), item CC(C)c1cccc(C(C)C)c1O
616

---

Assay: AUC (0 to t) in Beagle dog at 10 mg/kg, po by LC-MS/MS analysis
Assay type: ADME, organism-based, Canis lupus familiaris
Conditions: in vivo
endpoint.name: AUC(0-t) (ng·h/mL)
Give bare numbers, in ng·h/mL.

In [3]: df
Out[3]:
                                   molecule  endpoint_name  data_value
0  C=CCN1CC[C@]23c4c5ccc(O)c4O[C@H]2C(=O)CC[C@@]3(O)[C@H]1C5 [NALOXONE]       AUC(0-t)         117

Continue with the next molecule.
Need AUC(0-t), item CC(C)c1cccc([C@H](C)C2CC2)c1O [CIPEPOFOL]
162

---

Experiment: Toxicity in ICR mouse assessed as death at 100 mg equiv/kg parent drug administered via oral gavage relative to control
Settings: in vivo
endpoint.name: mortality (%)
Answers are plain numbers, in %.

Worked examples follow.
In [3]: df
Out[3]:
                                   molecule  endpoint_name  data_value
0  CCOC(=O)[C@H](C)NP(=O)(COC)Oc1c(C(C)C)cccc1[C@H](C)C1CC1 (stereo partly drawn)      mortality          50
1  CCOC(=O)[C@H](C)N[P@@](=O)(COC)Oc1c(C(C)C)cccc1[C@H](C)C1CC1      mortality          17

Need mortality, item CCOC(=O)[C@H](C)N[P@](=O)(COC)Oc1c(C(C)C)cccc1[C@H](C)C1CC1
0

---

System: Mus musculus
Test: Anesthetic activity in ICR mouse assessed as loss of righting reflex at 200 mg equiv/kg parent drug administered via oral gavage relative to control
Assay type: functional
endpoint.name: Activity (%)
Numbers only, in %.

Worked examples follow.
                                   compound  subject_of_test  data_value
0  COCP(=O)(N[C@@H](C)C(=O)OCC(C)C)Oc1c(C(C)C)cccc1C(C)C (stereo partly specified)     Mus musculus         100
1  CCOC(=O)C(C)(C)NP(=O)(COC)Oc1c(C(C)C)cccc1C(C)C (stereo unspecified)     Mus musculus         100
2  CCOC(=O)[C@H](C)NP(=O)(CO)Oc1c(C(C)C)cccc1C(C)C (stereo partly specified)     Mus musculus          40

Your task in this section: give Activity for each listed record.
1. CCOC(=O)[C@@H](C)NP(=O)(COC)Oc1c(C(C)C)cccc1C(C)C (stereo partly specified)
2. CCOC(=O)[C@H](C)N[P@](=O)(COC)Oc1c(C(C)C)cccc1C(C)C
3. CCOC(=O)[C@H](C)N[P@@](=O)(COC)Oc1c(C(C)C)cccc1C(C)C
4. CCOC(=O)CNP(=O)(COC)Oc1c(C(C)C)cccc1C(C)C (stereo unspecified)

[100, 100, 33, 70]

Your task in this section: give Activity for each listed record.
1. CCOC(=O)[C@H](C)NP(=O)(COC)Oc1c(C(C)C)cccc1C(C)C (stereo partly specified)
2. COCP(=O)(N[C@@H](C)C(=O)OC(C)C)Oc1c(C(C)C)cccc1C(C)C (stereo partly specified)
3. COCP(=O)(N[C@@H](C)C(=O)OCc1ccccc1)Oc1c(C(C)C)cccc1C(C)C (stereo partly specified)
4. CCOC(=O)[C@H](C)NP(=O)(CN1CCOCC1)Oc1c(C(C)C)cccc1C(C)C (stereo partly specified)

1: 100; 2: 40; 3: 50; 4: 60

---

Assay: Half life in Beagle dog at 3 mg/kg, iv administered as single bolus dose by LC-MS/MS analysis
Conditions: in vivo
endpoint.name: half-life (min)
Give bare numbers, in min.

Need half-life, item CC(C)c1cccc(C(C)C)c1O [PROPOFOL]
12

---

Assay: in vivo
Conditions: Beagle, dog, iv, 3 mg/kg
Description: Cmax in Beagle dog at 3 mg/kg, iv administered as single bolus dose by LC-MS/MS analysis
endpoint.name: Cmax (ng/mL)
Numbers only, in ng/mL.

Need Cmax, item CC(C)c1cccc(C(C)C)c1O [PROPOFOL]
2050

---

Experiment: Toxicity in ICR mouse assessed as death at 200 mg equiv/kg parent drug administered via oral gavage relative to control
Conditions: in vivo
endpoint.name: mortality (%)
Numbers only, in %.

Worked examples follow.
In [3]: df
Out[3]:
                                   molecule  endpoint_name  data_value
0  COCP(=O)(N[C@@H](C)C(=O)OCC(C)C)Oc1c(C(C)C)cccc1C(C)C (stereo partly specified)      mortality          10
1  CCOC(=O)C(C)(C)NP(=O)(COC)Oc1c(C(C)C)cccc1C(C)C (stereo unspecified)      mortality          20
2  CCOC(=O)[C@H](C)N[P@](=O)(COC)Oc1c(C(C)C)cccc1C(C)C      mortality           0
3  CCOC(=O)[C@H](C)NP(=O)(COC)Oc1c(C(C)C)cccc1C(C)C (stereo partly specified)      mortality          10
4  CCOC(=O)[C@H](C)NP(=O)(CN1CCOCC1)Oc1c(C(C)C)cccc1C(C)C (stereo partly specified)      mortality          10

Your task in this section: give mortality for each listed record.
1. CCOC(=O)[C@H](C)N[P@@](=O)(COC)Oc1c(C(C)C)cccc1C(C)C
2. CCOC(=O)[C@H](C)NP(=O)(CO)Oc1c(C(C)C)cccc1C(C)C (stereo partly specified)
3. COCP(=O)(N[C@@H](C)C(=O)OCc1ccccc1)Oc1c(C(C)C)cccc1C(C)C (stereo partly specified)
4. CCOC(=O)CNP(=O)(COC)Oc1c(C(C)C)cccc1C(C)C (stereo unspecified)
5. COCP(=O)(N[C@@H](C)C(=O)OC(C)C)Oc1c(C(C)C)cccc1C(C)C (stereo partly specified)

1. 0
2. 10
3. 10
4. 0
5. 0

Need mortality, item CCOC(=O)[C@@H](C)NP(=O)(COC)Oc1c(C(C)C)cccc1C(C)C (stereo partly specified)
10
